These measurements were taken from PubChem BioAssay (NCI).

- System: SNB-75 CNS
- assay.method.text: NCI tumour cell line growth inhibition, 48 h
reported.property: TGI (µM)
Dear colleague, please return just the value in µM, with no unit written.

Worked examples follow.
[
  {
    "compound": "C=C1C(C)C2C(Cc3ccccc3)NC(=O)C23OC(=O)/C=C\\CC(=O)CCC(C)C/C=C/C3C1O (stereo not given)",
    "tested.target": "SNB-75 CNS",
    "units.label": "µM",
    "experimental.value": 2.64
  },
  {
    "compound": "CC(C)N(Cc1ccc(CN(C(=O)CCl)C(C)C)cc1)C(=O)CCl",
    "tested.target": "SNB-75 CNS",
    "units.label": "µM",
    "experimental.value": 2.59
  }
]

# input For the record `CN=C1C=CC(=C(c2ccc(N(C)C)cc2)c2ccc(N(C)C)cc2)C=C1` , what value of TGI is listed for SNB-75 CNS?
# output 1.04

# input Note, next up: `COc1cc(/C=C/c2ccc(O)c(OC)c2)cc(OC)c1`
# output 97

# input Note, next up: `C#C[C@@]1(O)[C@@H](CO)O[C@@H](n2cc(I)c3c(N)ncnc32)[C@@H]1O`
# output 1.99

# input Note, next up: `COc1cc(Oc2nc3cc(F)c(F)cc3nc2-c2ccccc2)cc(OC)c1OC`
# output 51.2

# input Note, next up: CCOC(=O)CCC(C(=O)OCC)n1nnc2cc(Nc3c(C)[n+]([O-])c4cc(F)c(OCC)cc4[n+]3[O-])ccc21 (stereo not given)
# output 57.2

# input Note, next up: `O=C1/C(=C/c2ccc(F)cc2)CN(C(=O)CCN2CCC(=NO)CC2)C/C1=C\c1ccc(F)cc1`
# output 7.5

# input Note, next up: COc1cccc(C2c3cc4c(cc3OC(Nc3ccccc3)C2C)OCO4)c1O (stereo not given)
# output 26.8

* * *

- Tested on: SNB-19 CNS
- assay.method.text: NCI tumour cell line growth inhibition, 48 h
Recorded TGI, one value per entry.

Worked examples follow.
[
  {
    "compound": "CS(=O)(=O)Nc1cccc(-c2ccc3ncnc(Nc4ccc(F)c(Cl)c4)c3c2)c1",
    "tested.target": "SNB-19 CNS",
    "TGI": "4.78 µM"
  },
  {
    "compound": "CCCCCC(O)C(O)CCC[C@H](O)[C@H]1CC[C@H]([C@H]2CC[C@H]([C@H](O)CCCCCCCCCCCCC3=C[C@H](C)OC3=O)O2)O1 (stereo partly drawn)",
    "tested.target": "SNB-19 CNS",
    "TGI": "21.4 µM"
  },
  {
    "compound": "NC(=S)NC/C=C/Cl",
    "tested.target": "SNB-19 CNS",
    "TGI": "> 100 µM"
  },
  {
    "compound": "[N-]=[N+]=NCC(O)Cn1cnc2c(NC(=O)c3ccccc3)ncnc21 (stereo not drawn)",
    "tested.target": "SNB-19 CNS",
    "TGI": "> 100 µM"
  },
  {
    "compound": "O=C1C2C=CC(n3[nH]c(=O)n(Cc4ccccc4)c3=O)CC2C(=O)N1c1ccc(Br)cc1 (stereo not drawn)",
    "tested.target": "SNB-19 CNS",
    "TGI": "> 100 µM"
  },
  {
    "compound": "Cc1ccc(S(=O)(=O)NC(=O)C2=C3SCCN3C(=O)N(S(=O)(=O)c3ccc(C)cc3)C2c2ccccc2)cc1 (stereo not drawn)",
    "tested.target": "SNB-19 CNS",
    "TGI": "> 100 µM"
  },
  {
    "compound": "Cc1ccc(N=C[N-]c2ccc(C)cc2)cc1.Cc1ccc(N=C[N-]c2ccc(C)cc2)cc1.O=C([O-])C(F)(F)F.O=C([O-])C(F)(F)F.[OH3+].[OH3+].[Rh+2].[Rh+2]",
    "tested.target": "SNB-19 CNS",
    "TGI": "> 100 µM"
  }
]

Kindly consider the entry below.
# input For the record `CC1=CCC[C@H]2[C@](C)(CC3=CC(=O)C(SCC(C)C)=CC3=O)[C@@H](C)CC[C@]12C` , what value of TGI is listed for SNB-19 CNS?
# output 34.6 µM
